Cited source for all entries: patent US20250304644A1

target: human GLP-1R (glucagon-like peptide-1 receptor) (human, UniProt P43220 24-463); assay: cell-based or functional assay
*1 amine or outer side, *2 acyl side, *3 side chain or, on linkers, in order; H or OH if unused. Where no end group is shown, it is not given here. Side-chain parts run from the residue outwards. The star is where a group is joined. C18 diacid = O=C(O)CCCCCCCCCCCCCCCCC(=O)*; γGlu = O=C(O)[C@H](CCC(=O)[*:2])N[*:1]; AEEA = NCCOCCOCC(=O)O
READOUT_NAME: EC50 (nM) GLP-1R
// note: answer is a bare numeric in nM

Known EC50 (nM) GLP-1R results, listed for orientation:
HADGTFTSDYSTILDKLAARDFINWLIQTKGKKNDWKHNITQK([AEEA-AEEA-γGlu-C18 diacid])-OH [Compound 26] | 0.04
HXDGTFISDYSTILDNLAARDFIEWLIQTKITK (Aib at position 2; K33 acylated with C10, K(C10); C-terminal amide (-NH2)) [Compound 9] | 5.62

Recorded EC50 (nM) GLP-1R of HADGTFTSDYSTILDKLAARDFINWLIQTKGKK([AEEA-AEEA-γGlu-C18 diacid])NDWKHNITQ-OH [Compound 24] , please.
0.05
